Protocol Description: chemical genetic growth profiling, strain panel (AID 1159580);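 note: tested at 20 µM; growth read once vehicle control cultures reached saturation at 30 °C; lower values mean less growth of the strain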
Recorded Conditions: S. cerevisiae deletion strains, growth OD, locus YER155C, strain BEM2, hits give low values
The whole screen tested about 5,500 compounds, of which about 2,000 (36%) were called active. Roughly 18% stayed inconclusive and do not appear here. Some of the results follow.
Label key: true means normalized growth under 1; false means normalized growth of 1 or more.

Check out these entries, answers already filled in.
*Q* Does this compound meet the criterion normalized growth < 1? CC(C)CC(N(C)C)C1(c2ccc(Cl)cc2)CCC1 (stereo unspecified)
*A* true

*Q* Does this compound meet the criterion normalized growth < 1? CC(C)=CCCC1(C)C=Cc2c(O)c3c(c(CC=C(C)C)c2O1)OC12C(CC4CC1C(C)(C)OC2(C/C=C(/C)C(=O)O)C4O)C3=O (stereo unspecified)
*A* false

*Q* Does this compound meet the criterion normalized growth < 1? CC(C)=CCCC1(C)C=Cc2c(O)c3c(c(CC=C(C)C)c2O1)OC12C(=CCCC1C(C)(C)O[C@@]2(C/C=C(\C)C(=O)O)C(=O)O)C3=O (stereo partly specified)
*A* true

Proceed to the following item.
*Q* Does this compound meet the criterion normalized growth < 1? C[C@@H]1CC[C@H]2[C@@H](C)C(=O)O[C@@H]3O[C@@]4(C)CC[C@@H]1[C@]32OO4
*A* true
